src = patent US11795460B2

Listed here are molecules together with their documented Avg % Deletion.
- Test system: TTR
- Method Description: TTR editing in primary human hepatocytes transfected with Spy Cas9 protein and sgRNAs (Table 12)
- Type: cell-based
- Particulars: primary human hepatocytes transfected with Spy Cas9 protein (RNP) and sgRNAs
Strand notation (5' to 3'): a small letter for the sugar, then the base; units joined by * are phosphorothioate-linked, units joined directly phosphodiester-linked; [ ] holds rarer units or linkages, { } end groups; capitals alone tell only the bases. m = 2'-O-methyl; r = 2'-OH (RNA)
Be sure to follow the number with its unit.

Asked: Query: Avg % Deletion; subject: G000500: TTR sgRNA modified sequence, Human, SEQ ID No. 107; guide sequence of CR003337 (nucleic acid) guide: mC*mC*mA*rGrUrCrCrArGrCrArArGrGrCrArGrArGrGrGrUrUrUrUrArGrAmGmCmUmAmGmAmAmAmUmAmGmCrArArGrUrUrArArArArUrArArGrGrCrUrArGrUrCrCrGrUrUrArUrCrAmAmCmUmUmGmAmAmAmAmAmGmUmGmGmCmAmCmCmGmAmGmUmCmGmGmUmGmCmU*mU*mU*mU
Given back: 3.83%

Asked: Now consider G000491: TTR sgRNA modified sequence, Human, SEQ ID No. 98; guide sequence of CR003338 (nucleic acid) guide: mA*mU*mA*rCrCrArGrUrCrCrArGrCrArArGrGrCrArGrGrUrUrUrUrArGrAmGmCmUmAmGmAmAmAmUmAmGmCrArArGrUrUrArArArArUrArArGrGrCrUrArGrUrCrCrGrUrUrArUrCrAmAmCmUmUmGmAmAmAmAmAmGmUmGmGmCmAmCmCmGmAmGmUmCmGmGmUmGmCmU*mU*mU*mU and answer again.
Given back: 4.33%
